test system: Photobacterium leiognathi; assay: Growth inhibition of Photobacterium leiognathi Sh1 assessed as bio-luminescence at 0.1 mg/ml after 16 to 18 hr by chronic action test relative to control; type: functional; parameters: scale not given: the % may be the effect or the level left
Quantity name: Activity

>>> df
                            compound_smiles  quantity_name   result
0  Cc1nn2c(SCC(=O)NCCc3ccccc3)nc3ccccc3c2nc1=O       Activity     100%
1  O=C(CSc1nc2ccccc2c2nc(=O)c(-c3ccccc3)nn12)Nc1cccc(F)c1       Activity   38.89%
2  Cc1ccc(-c2nn3c(SCC(=O)Nc4ccc(F)cc4)nc4ccccc4c3nc2=O)cc1       Activity  133.33%
3  COc1ccccc1NC(=O)CSc1nc2ccccc2c2nc(=O)c(-c3ccccc3)nn12       Activity   11.36%
4  Cc1nn2c(SCC(=O)NCc3ccccc3)nc3ccccc3c2nc1=O       Activity   115.4%
5  COc1ccc(NC(=O)CSc2nc3ccccc3c3nc(=O)c(-c4ccc(C)cc4)nn23)cc1       Activity     117%
6  COc1ccccc1CNC(=O)CSc1nc2ccccc2c2nc(=O)c(C)nn12       Activity     160%
7  O=C(CSc1nc2ccccc2c2nc(=O)c(-c3ccccc3)nn12)NCc1ccccc1Cl       Activity   133.3%
8  Cc1nn2c(SCC(=O)NCc3ccccc3F)nc3ccccc3c2nc1=O       Activity   233.3%
9  COc1ccc(CNC(=O)CSc2nc3ccccc3c3nc(=O)c(C)nn23)cc1       Activity     176%

---

system: Photobacterium leiognathi; test: Growth inhibition of Photobacterium leiognathi Sh1 assessed as bio-luminescence at 0.25 mg/ml after 10 min by acute action test relative to control; format: functional; design: scale not given: the % may be the effect or the level left
Quantity name: Activity

In [3]: df
Out[3]:
                            compound_smiles  quantity_name  result
0  Cc1nn2c(SCC(=O)Nc3cccc(Cl)c3)nc3ccccc3c2nc1=O       Activity  104.5%
1  COc1ccc(-c2nn3c(SCC(=O)Nc4ccccc4C)nc4ccccc4c3nc2=O)cc1       Activity  68.42%
2  Cc1ccc(-c2nn3c(SCC(=O)Nc4ccccc4F)nc4ccccc4c3nc2=O)cc1       Activity  47.83%

---

tested on: Photobacterium leiognathi; assay: Growth inhibition of Photobacterium leiognathi Sh1 assessed as bio-luminescence at 0.25 mg/ml after 16 to 18 hr by chronic action test relative to control; assay type: functional; design: scale not given: the % may be the effect or the level left
Values of Activity strictly less than 80% map to rule met, and values of at least 80% map to rule not met.

                             compound_smiles  assigned_category
 0  Cc1ccc(CNC(=O)CSc2nc3ccccc3c3nc(=O)c(-c4ccccc4)nn23)cc1       rule not met
 1  COc1ccccc1CNC(=O)CSc1nc2ccccc2c2nc(=O)c(-c3ccccc3)nn12           rule met
 2  Cc1ccc(-c2nn3c(SCC(=O)Nc4cccc(C(F)(F)F)c4)nc4ccccc4c3nc2=O)cc1       rule not met
 3  Cc1ccc(-c2nn3c(SCC(=O)Nc4ccccc4[N+](=O)[O-])nc4ccccc4c3nc2=O)cc1           rule met
 4  Cc1nn2c(SCC(=O)NCCc3ccccc3)nc3ccccc3c2nc1=O       rule not met
 5  COc1ccc(-c2nn3c(SCC(=O)Nc4ccccc4C(F)(F)F)nc4ccccc4c3nc2=O)cc1       rule not met
 6  Cc1nn2c(SCC(=O)NCc3ccc(F)cc3)nc3ccccc3c2nc1=O       rule not met
 7  COc1ccccc1CNC(=O)CSc1nc2ccccc2c2nc(=O)c(C)nn12       rule not met
 8  Cc1nn2c(SCC(=O)NCc3cccc(C(F)(F)F)c3)nc3ccccc3c2nc1=O       rule not met
 9  COc1ccc(CNC(=O)CSc2nc3ccccc3c3nc(=O)c(C)nn23)cc1       rule not met
10  Cc1nn2c(SCC(=O)Nc3ccccc3)nc3ccccc3c2nc1=O           rule met
11  Cc1nn2c(SCC(=O)NCc3ccccc3F)nc3ccccc3c2nc1=O       rule not met
12  Cc1ccc(-c2nn3c(SCC(=O)Nc4cccc(F)c4)nc4ccccc4c3nc2=O)cc1           rule met
13  O=C(CSc1nc2ccccc2c2nc(=O)c(-c3ccccc3)nn12)Nc1ccc(Cl)cc1       rule not met
14  Cc1cccc(NC(=O)CSc2nc3ccccc3c3nc(=O)c(C)nn23)c1           rule met
15  COc1ccc(-c2nn3c(SCC(=O)Nc4ccc(C)cc4)nc4ccccc4c3nc2=O)cc1           rule met
16  COc1ccccc1NC(=O)CSc1nc2ccccc2c2nc(=O)c(-c3ccccc3)nn12           rule met
17  O=C(CSc1nc2ccccc2c2nc(=O)c(-c3ccccc3)nn12)NCCc1ccccc1           rule met
18  O=C(CSc1nc2ccccc2c2nc(=O)c(-c3ccccc3)nn12)Nc1cccc(Cl)c1       rule not met
19  COc1ccc(-c2nn3c(SCC(=O)Nc4ccccc4Cl)nc4ccccc4c3nc2=O)cc1           rule met
20  O=C(CSc1nc2ccccc2c2nc(=O)c(-c3ccccc3)nn12)NCc1ccccc1F           rule met
21  Cc1nn2c(SCC(=O)NCc3ccccc3Cl)nc3ccccc3c2nc1=O       rule not met
22  O=C(CSc1nc2ccccc2c2nc(=O)c(-c3ccccc3)nn12)Nc1cccc(F)c1       rule not met
23  O=C(CSc1nc2ccccc2c2nc(=O)c(-c3ccccc3)nn12)NCc1cccc(C(F)(F)F)c1           rule met
24  Cc1ccc(-c2nn3c(SCC(=O)Nc4ccc(C(F)(F)F)cc4)nc4ccccc4c3nc2=O)cc1       rule not met
25  Cc1nn2c(SCC(=O)Nc3ccccc3F)nc3ccccc3c2nc1=O       rule not met
26  COc1ccc(NC(=O)CSc2nc3ccccc3c3nc(=O)c(-c4ccc(C)cc4)nn23)cc1           rule met
27  Cc1ccc(-c2nn3c(SCC(=O)Nc4ccccc4C)nc4ccccc4c3nc2=O)cc1       rule not met
28  Cc1nn2c(SCC(=O)NCc3ccccc3)nc3ccccc3c2nc1=O       rule not met
29  Cc1nn2c(SCC(=O)Nc3cccc(Cl)c3)nc3ccccc3c2nc1=O           rule met
30  Cc1ccc(-c2nn3c(SCC(=O)Nc4ccc(Cl)cc4)nc4ccccc4c3nc2=O)cc1           rule met
